Test: Drug repurposing screens with cells derived from glioblastoma tumor samples (AID 1345199); further: on the % scale 0 is the no-effect control and ±100 the full control effect; nearly all actives have a fitted effect of over 40% in size
Conditions: GBM patient neurospheres viability, ATP luminescence, 48 h; at 45.9 µM (top of the series); tumour line B
Inconclusive results are not listed. Active and inactive are the calls of the source. The call rests on the fitted dose curve; in most records, active means well fitted inhibition curve with a large enough effect; inconclusive means small, poorly fitted or top-dose-only effect; inactive means flat fitted curve, though single readings scatter.
endpoint: activity, negative = cell killing

Completed entries (count: 3):
[
  {
    "molecule": "COc1ccc(CCN(C)CCCC(C#N)(c2cc(OC)c(OC)c(OC)c2)C(C)C)cc1OC (stereo unspecified)",
    "activity, negative = cell killing": "-13.5% (inactive)"
  },
  {
    "molecule": "N[C@@H](COP(=O)(O)O)C(=O)O",
    "activity, negative = cell killing": "-4.31% (inactive)"
  },
  {
    "molecule": "C[N+](C)(C)CCOC(=O)CCC(=O)OCC[N+](C)(C)C",
    "activity, negative = cell killing": "5.74% (inactive)"
  }
]

response.value for CC(C)NCC(O)c1cc(O)cc(O)c1 (stereo unspecified) (field: activity, negative = cell killing) = -18.9% (inactive)

response.value for `CCn1cc(C(=O)O)c(=O)c2cc3c(cc21)OCO3` (field: activity, negative = cell killing) = -1.33% (inactive)

response.value for CNC1(C)C2CCC(C2)C1(C)C (stereo unspecified) (field: activity, negative = cell killing) = 1.71% (inactive)

* * *

Experiment: qHTS for differential inhibitors of proliferation of Plasmodium falciparum line GB4 (AID 1816);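 further: parasite growth measured after 72 h incubation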
Conditions: Plasmodium falciparum GB4 proliferation inhibition; series mostly up to 28.7 µM
Results filed as inconclusive are left out. Activity calls are given as the source filed them. The call rests on the fitted dose curve; in most records, active means well fitted curve in the direction sought with a large enough effect; inconclusive means small, poorly fitted or top-dose-only effect, or another doubt; inactive means no such curve, though single readings can be large or run the other way.
Hello, when you answer, please use one of the following outcomes: Y for active, N for inactive

Query string: In this assay, the call recorded for `CN(C)C(=O)Oc1cccc([N+](C)(C)C)c1` was what?
Result string: N

Query string: In this assay, the call recorded for `CN=C(NC#N)NCCSCc1nc[nH]c1C` was what?
Result string: N

Query string: In this assay, the call recorded for `Nc1ncn([C@@H]2O[C@H](CO)[C@@H](O)[C@H]2O)c(=O)n1` was what?
Result string: N

Query string: In this assay, the call recorded for CCOC(=O)C1=C(C)NC(C)=C(C(=O)OC)C1c1cccc(Cl)c1Cl (stereo unspecified) was what?
Result string: Y

Query string: In this assay, the call recorded for `CCCCNc1c(C(=O)OCC)c(C)nc2c1cnn2CC` was what?
Result string: Y

* * *

Experiment: qHTS of pediatric cancer cell lines to identify multiple opportunities for drug repurposing: Confirmatory screen for SJ-GBM2 cells (AID 1347116);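 further: 48 hour compound exposure; nearly all actives have a fitted effect of over 60% in size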; further: potency means the concentration at half of the fitted maximal effect
Conditions: SJ-GBM2 glioblastoma cells, viability; series mostly up to 45.9 µM
Inconclusive results are not listed. Active and inactive are the calls of the source. Calls come from the whole dose curve; as a rule, active = well fitted cell-killing curve with a large enough effect; inconclusive = small, poorly fitted or top-dose-only effect, or effect the other way; inactive = no such curve, though single readings can be large or run the other way.
endpoint: Potency

[
  {
    "compound": "C[C@]12CC[C@@H]3c4ccc(O)cc4C[C@@H](CCCCCCCCCS(=O)CCCC(F)(F)C(F)(F)F)[C@H]3[C@@H]1CC[C@@H]2O (some centres undefined)",
    "result": "inactive"
  },
  {
    "compound": "Nc1nc(N)c2nc(-c3ccccc3)c(N)nc2n1",
    "result": "9.27 µM (active)"
  },
  {
    "compound": "CN/C(=C\\[N+](=O)[O-])NCCSCc1ccc(CN(C)C)o1",
    "result": "inactive"
  },
  {
    "compound": "C[n+]1cc2c3c(ccc2c2ccc4cc5c(cc4c21)OCO5)OCO3",
    "result": "3.62 µM (active)"
  }
]
